# ASSAYED TARGET: polyclonal antibodies in mouse sera specific for human PCSK9 aa 153-162 or aa 153-165
# ASSAY COMMENT: competition ELISA, 20 ug peptide with sera, plate coated with m2 (competitor)
Please go through the items and note down their % Competition compared to the related control group.
Express your answer in %, writing the number without its unit.

Field request: % Competition compared to the related control group | item: "SIPWNLERTT"
73

Field request: % Competition compared to the related control group | item: "SVPWNLERIQ"
61

Field request: % Competition compared to the related control group | item: "SVPWSLERLT"
74

Field request: % Competition compared to the related control group | item: "SIAWNLERIT"
78

Field request: % Competition compared to the related control group | item: "SIPWNLARIT"
13

Field request: % Competition compared to the related control group | item: "SIPWQLERITPPR"
79

Field request: % Competition compared to the related control group | item: "SIPWNDERIT"
71

Field request: % Competition compared to the related control group | item: "SGPWNLERITPPR"
54
